- Assay Target: T1, recombinant biotinylated CD71 extracellular domain (Sino Biologics) with an N-terminal 6His tag (human, UniProt P02786 89-760, biotinylated (sites not given))
- T1 construct: extracellular domain; also called hCD71; huCD71
- T1 sequence (P02786 other isoform, or with tags, fused parts or gaps): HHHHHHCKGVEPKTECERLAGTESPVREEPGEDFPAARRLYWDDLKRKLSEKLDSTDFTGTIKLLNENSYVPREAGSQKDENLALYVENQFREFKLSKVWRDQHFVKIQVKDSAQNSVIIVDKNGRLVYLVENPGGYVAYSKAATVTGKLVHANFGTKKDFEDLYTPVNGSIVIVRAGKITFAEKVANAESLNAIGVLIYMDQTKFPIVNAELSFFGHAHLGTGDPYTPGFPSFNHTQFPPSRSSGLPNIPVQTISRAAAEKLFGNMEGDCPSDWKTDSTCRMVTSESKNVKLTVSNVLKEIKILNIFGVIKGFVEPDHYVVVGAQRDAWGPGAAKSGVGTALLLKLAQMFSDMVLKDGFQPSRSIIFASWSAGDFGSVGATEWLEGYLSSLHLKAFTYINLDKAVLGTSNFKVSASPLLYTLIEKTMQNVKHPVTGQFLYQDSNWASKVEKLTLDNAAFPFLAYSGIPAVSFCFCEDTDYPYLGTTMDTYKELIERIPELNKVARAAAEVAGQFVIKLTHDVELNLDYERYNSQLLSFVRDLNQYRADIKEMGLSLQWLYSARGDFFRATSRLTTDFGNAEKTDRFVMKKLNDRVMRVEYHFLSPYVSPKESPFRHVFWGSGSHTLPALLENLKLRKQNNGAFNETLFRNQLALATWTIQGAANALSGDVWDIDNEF
- Run Description: screening ELISA, ratio
Measured Property: hCD71:HSA

Query: hCD71:HSA for SEQ ID NO 129 (designed binder, FN3 domain) MLPAPKNLVVSRVTEDSARLSWTAPDAAFDSFDIEYYEAVGAGEAIVLTVPGSERSYDLTGLKPGTEYTVGIYGVKGGWLSKPLSVIFTT ?
Result: 1540

(P) SEQ ID NO 278 (designed binder, FN3 domain) MLPAPKNLVVSRVTEDSARLSWTAPDAAFDSFPIAYAEPRPDGEAIVLTVPGSERSYDLTGLKPGTEYSVLIHGVKGGHLSDPLSAIFTT
(Q) SEQ ID NO 309 (designed binder, FN3 domain) MLPAPKNLVVSRVTEDSARLSWTAPDAAFDSFIIDYLELDQEGEAIVLTVPGSERSYDLTGLKPGTEYAVYIFGVKGGYPSTPLSAIFTT
(R) SEQ ID NO 170 (designed binder, FN3 domain) MLPAPKNLVVSRVTEDSARLSWTAPDAAFDSFFIGYPEYPATGEAIVLTVPGSERSYDLTGLKPGTEYFVDINGVKGGSLSYPLSAIFTT
Query: // ascending sort on recorded hCD71:HSA List labels; respect the requested ordering.
Result: R, P, Q
